system: LG0703-F948-PDC complex spheroid viability; assay: Anticancer human tumor LG0703-F948-PDC patient-derived lung adenocarcinoma cell line growth inhibition [RAS]; details: second compound 0.00949 µM; first compound 0.0316 µM; hits give low values
Lab note: anything with viability, T/C below 30% is marked fulfilled; values at 30% or higher are marked not fulfilled.

*Q* Regarding C[C@@H](NC(=O)c1ncnc(N)c1Cl)c1ncc(C(=O)Nc2cc(C(F)(F)F)c(Cl)cn2)s1 + CCn1c(-c2cc(N3CCN(C)CC3)cnc2C(C)OC)c2c3cc(ccc31)-c1csc(n1)CC(NC(=O)C1CC1C)C(=O)N1CCCC(N1)C(=O)OCC(C)(C)C2 , kindly confirm whether its viability, T/C is beneath 30%.
*A* not fulfilled

*Q* Regarding CCC(CC)c1cc(NC2CCC(N)C2)n2nccc2n1 (stereo not drawn) + CCn1c(-c2cc(N3CCN(C)CC3)cnc2C(C)OC)c2c3cc(ccc31)-c1csc(n1)CC(NC(=O)C1CC1C)C(=O)N1CCCC(N1)C(=O)OCC(C)(C)C2 , kindly confirm whether its viability, T/C is beneath 30%.
*A* fulfilled

* * *

tested on: LG0703-F948-PDC complex spheroid viability; test: Anticancer human tumor LG0703-F948-PDC cell line growth inhibition [RAS]; conditions: second compound 0.000949 µM; first compound 0.1 µM; hits give low values;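 also: spheroids exposed to agents for 7 days; 100% = DMSO vehicle wells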
Observed property: viability, T/C

Worked cases, viability, T/C given:
1) CC(=O)OC12COC1CC(O)C1(C)C(=O)C(O)C3=C(C)C(OC(=O)C(O)C(NC(=O)OC(C)(C)C)c4ccccc4)CC(O)(C(OC(=O)c4ccccc4)C21)C3(C)C (stereo not drawn) + CCn1c(-c2cc(N3CCN(C)CC3)cnc2C(C)OC)c2c3cc(ccc31)-c1csc(n1)CC(NC(=O)C1CC1C)C(=O)N1CCCC(N1)C(=O)OCC(C)(C)C2: 33.5%
2) CCN1CCN(Cc2ccc(Nc3ncc(F)c(-c4cc(F)c5nc(C)n(C(C)C)c5c4)n3)nc2)CC1 + CCn1c(-c2cccnc2C(C)OC)c2c3cc(ccc31)N1CCOC(CC(NC(=O)C(C(C)C)N(C)C(=O)C3(F)CCN(C(=O)C#CC(C)(C)N(C)C)CC3)C(=O)N3CCCC(N3)C(=O)OCC(C)(C)C2)C1: 81.8%
3) CC(=O)OC12COC1CC(O)C1(C)C(=O)C(O)C3=C(C)C(OC(=O)C(O)C(NC(=O)OC(C)(C)C)c4ccccc4)CC(O)(C(OC(=O)c4ccccc4)C21)C3(C)C (stereo not drawn) + CCn1c(-c2cccnc2C(C)OC)c2c3cc(ccc31)N1CCOC(CC(NC(=O)C(C(C)C)N(C)C(=O)C3(F)CCN(C(=O)C#CC(C)(C)N(C)C)CC3)C(=O)N3CCCC(N3)C(=O)OCC(C)(C)C2)C1: 36.8%

Give viability, T/C for all molecules that follow.
1. C[C@@H](NC(=O)c1ncnc(N)c1Cl)c1ncc(C(=O)Nc2cc(C(F)(F)F)c(Cl)cn2)s1 + CCn1c(-c2cc(N3CCN(C)CC3)cnc2C(C)OC)c2c3cc(ccc31)-c1csc(n1)CC(NC(=O)C1CC1C)C(=O)N1CCCC(N1)C(=O)OCC(C)(C)C2
2. CC1(O)CCCC1n1c(=O)c(C(F)F)cc2cnc(NC3CCN(S(C)(=O)=O)CC3)nc21 (stereo not drawn) + CCn1c(-c2cccnc2C(C)OC)c2c3cc(ccc31)N1CCOC(CC(NC(=O)C(C(C)C)N(C)C(=O)C3(F)CCN(C(=O)C#CC(C)(C)N(C)C)CC3)C(=O)N3CCCC(N3)C(=O)OCC(C)(C)C2)C1
3. C[C@@H](NC(=O)c1ncnc(N)c1Cl)c1ncc(C(=O)Nc2cc(C(F)(F)F)c(Cl)cn2)s1 + CCn1c(-c2cccnc2C(C)OC)c2c3cc(ccc31)N1CCOC(CC(NC(=O)C(C(C)C)N(C)C(=O)C3(F)CCN(C(=O)C#CC(C)(C)N(C)C)CC3)C(=O)N3CCCC(N3)C(=O)OCC(C)(C)C2)C1

*A*
["78.6%", "89.6%", "106%"]

Give viability, T/C for all molecules that follow.
1. O=C(c1ccc(F)c(F)c1Nc1ccc(I)cc1F)N1CC(O)([C@@H]2CCCCN2)C1 + CCn1c(-c2cc(N3CCN(C)CC3)cnc2C(C)OC)c2c3cc(ccc31)-c1csc(n1)CC(NC(=O)C1CC1C)C(=O)N1CCCC(N1)C(=O)OCC(C)(C)C2
2. Nc1ccn(C2OC(CO)C(O)C2(F)F)c(=O)n1 (stereo not drawn) + CCn1c(-c2cc(N3CCN(C)CC3)cnc2C(C)OC)c2c3cc(ccc31)-c1csc(n1)CC(NC(=O)C1CC1C)C(=O)N1CCCC(N1)C(=O)OCC(C)(C)C2

*A*
1: 19.2%; 2: 40.5%
